Where these numbers come from: PubChem BioAssay (NCI)

Tested on: K-562 leukemia
Test: NCI-60 one-dose screen, 48 h
Settings: 10 µM unless noted
About 83,000 compounds went through this panel and 20% of them were active in at least one assay; those are over-represented in the sample as a whole. Calls of active or inactive are those of the source. Rule for the calls: active = growth percent below 10; inactive = the rest.
Please reply with one of these outcomes: 1.0 for active, 0.0 for inactive

What call does the record list for Cc1ccc(-c2cc(-c3ccccc3)[nH]c(=O)c2C#N)cc1 ? 0.0

What call does the record list for c1ccc(CSc2nnc(-c3ccc4nc(-c5ccccc5)[nH]c4c3)o2)cc1 ? 0.0

What call does the record list for N#Cc1c(NC(=O)N2CCOCC2)n(-c2ccc(OC(F)(F)F)cc2)c2cc(F)ccc12 ? 1.0

What call does the record list for Cc1nc(N)ncc1-c1ccc2ncnc(N3CCc4cc(F)c(Cl)cc43)c2c1 ? 0.0

What call does the record list for COc1ccc(NC(=O)CSc2nnc(-c3ccc(-c4nc5ccccc5[nH]4)cc3)o2)cc1 ? 0.0

What call does the record list for C#CCN(C)CCCOc1ccc(N(C)C(=O)c2cc(C(C)C)c(O)cc2O)cc1Cl ? 1.0

What call does the record list for COc1ccc(-c2cc(-c3cc(OC)c(OC)c(OC)c3)[nH]c(=O)c2C#N)cc1 ? 0.0

What call does the record list for CCCCCCCCCCCCCCCCCC(=O)Nc1ccc(OC)cc1 ? 0.0

What call does the record list for Cc1ccc(C(=O)Nc2cc(-n3ccnc3C)cc(C(F)(F)F)c2)cc1C#Cc1cnc2cccnn12 ? 1.0

What call does the record list for O=C(Nc1ccc(-c2ccc3c(c2)NC(=O)/C3=C\c2ccc[nH]2)cc1)Nc1cccc(Cl)c1 ? 1.0

----------
System: SK-MEL-28 melanoma
Test: NCI-60 one-dose screen, 48 h (100 = growth as untreated, 0 = no growth, -100 = all killed)
Details: 10 µM unless noted
About 83,000 compounds went through this panel and 20% of them were active in at least one assay; those are over-represented in the sample as a whole.
ASSAY_READOUT: growth (%)
Field format: number, assumed %, no unit text.

Would you please look over these solved cases?
C#CCN(C)CCCOc1ccc(N(CC)C(=O)c2cc(C(C)C)c(O)cc2O)cc1Cl :: 5.69
C[C@@H]1CN(c2ccc3ncc(C#Cc4cncc(C(=O)Nc5ccc(CN6CCN(C)CC6)c(C(F)(F)F)c5)c4)n3n2)C[C@@H](C)O1 :: -58.4
Nc1nc(-c2ccccc2)c(N=Nc2ccc(Cl)cc2Cl)s1 :: -55.8
COc1ccc(-c2cc(-c3cc(OC)c(OC)c(OC)c3)[nH]c(=O)c2C#N)cc1 :: 51.9
CCOc1ccccc1[C@H]1C(C(=O)c2ccc(Cl)cc2)C2(N[C@@H]1c1ccccc1)C(=O)Nc1ccc(Br)cc12 (some centres not stated) :: -23.4
CN(C)CCCNC(=S)Nc1ccc(/C=C/c2ccc(Cl)cc2)cc1 :: -97.6
COc1cc(CNC(=O)C[C@H](C)CCC=C(C)C)ccc1OCc1cn(-c2ccc(Cl)cc2Cl)nn1 :: 96.3
O=C1NC(=NC23CC4CC(CC(C4)C2)C3)N/C1=C\c1ccc2ncccc2c1 :: -3.01

Form entry - test system: SK-MEL-28 melanoma; read-out: growth; compound: N#C/C(=C/c1ccc(Cl)cc1)c1nnc(NC(=O)c2ccc(-n3c(=O)[nH]c4ccccc4c3=O)cc2)s1 74.9

Form entry - test system: SK-MEL-28 melanoma; read-out: growth; compound: COc1ccc(OC)c(Cn2cc(C#N)c(N)c2C(=O)c2ccc(Br)cc2)c1 54.3

Form entry - test system: SK-MEL-28 melanoma; read-out: growth; compound: Cc1nc2sccn2c1-c1nnc(SCC(C)C)o1 104
